# assayed.system: T1, epitope tag peptide SRLEEELRRRLTE (SEQ ID NO: 2), biotinylated (also: biotinylated (site and linker not given here))
# T1 construct: Rationally designed peptide; also called ALFA-tag
# T1 peptide: SRLEEELRRRLTE
# method.summary: BLI (Octet), biotinylated peptide on SAX2.0 biosensors, 1:1 global fit
Ends that are not written are not given here.
property.measured: kon (M⁻¹ s⁻¹)
Please respond with the number in M⁻¹ s⁻¹ and leave the unit unwritten.

binder	unit.label	observed
Variant 15 of humanized NbALFA (VHH) VHH: EVQLVESGGGLVQPGGSLRLSCAASGVTISALNAMAMGWYRQAPGKRREMVAAVSERGNTYYRDSVKGRFTISRDNSKNTLYLQMNSLRAEDTAVYYCHVLEDRVDSFHDYWGQGTQVTVSS	M⁻¹ s⁻¹	1.59e+06

Next binder, please.
Ask: Returns the measured kon for the input binder. Input: Variant 8 of humanized NbALFA (VHH, Further engineered humanized variant; Any tag on the tested construct is not described) VHH: EVQLVESGGGLVQPGGSLRLSCAASGVTISALNAMAMGWFRQAPGKRREMVAAVSERGNAMYRESVQGRFTISRDNAKRMVYLQMNSLRAEDTAVYYCHVLEDRVDSFHDYWGQGTQVTVSS
Reply: 1e+06
